# tested-system: Androgen receptor (Homo sapiens)
# measurement-description: Modulation of androgen receptor (unknown origin) expressed in Cos7 cells assessed as luciferase activity after 24 hrs
Rule for this label: Met means EC50 is less than 2 nM; Not met means EC50 is at least 2 nM.

Q: Is EC50 strictly under 2 nM for the entry N#Cc1ccc(N2CCC[C@@H]2C#N)c2ccccc12 ?
A: Not met

New cases:
Q: Is EC50 strictly under 2 nM for the entry C[C@H]1C(=O)CCN1c1ccc(C#N)c2ccccc12 ?
A: Not met

Q: Is EC50 strictly under 2 nM for the entry C[C@H]1[C@@H](C(C)(C)O)CCN1c1ccc(C#N)c2ccccc12 ?
A: Not met

Q: Is EC50 strictly under 2 nM for the entry CC1(C)CCCN1c1ccc(C#N)c2ccccc12 ?
A: Not met

Q: Is EC50 strictly under 2 nM for the entry O=[N+]([O-])c1ccc(N2CCCC2)c2ccccc12 ?
A: Not met

Q: Is EC50 strictly under 2 nM for the entry N#Cc1ccc(N2CCCC2)c2ccccc12 ?
A: Not met

Q: Is EC50 strictly under 2 nM for the entry C[C@H]1[C@@H](O)CCN1c1ccc(C#N)c2ccccc12 ?
A: Met

Q: Is EC50 strictly under 2 nM for the entry C[C@H]1CCCN1c1ccc(C#N)c2ccccc12 ?
A: Met

Q: Is EC50 strictly under 2 nM for the entry C[C@H]1[C@H](O)CCN1c1ccc(C#N)c2ccccc12 ?
A: Met

Q: Is EC50 strictly under 2 nM for the entry N#Cc1ccc(N2CCC[C@@H]2C(N)=O)c2ccccc12 ?
A: Not met

Q: Is EC50 strictly under 2 nM for the entry C[C@H]1[C@@H](CO)CCN1c1ccc(C#N)c2ccccc12 ?
A: Met

====

# tested-system: Androgen receptor (Homo sapiens, UniProt P10275)
# Sequence (P10275 whole entry): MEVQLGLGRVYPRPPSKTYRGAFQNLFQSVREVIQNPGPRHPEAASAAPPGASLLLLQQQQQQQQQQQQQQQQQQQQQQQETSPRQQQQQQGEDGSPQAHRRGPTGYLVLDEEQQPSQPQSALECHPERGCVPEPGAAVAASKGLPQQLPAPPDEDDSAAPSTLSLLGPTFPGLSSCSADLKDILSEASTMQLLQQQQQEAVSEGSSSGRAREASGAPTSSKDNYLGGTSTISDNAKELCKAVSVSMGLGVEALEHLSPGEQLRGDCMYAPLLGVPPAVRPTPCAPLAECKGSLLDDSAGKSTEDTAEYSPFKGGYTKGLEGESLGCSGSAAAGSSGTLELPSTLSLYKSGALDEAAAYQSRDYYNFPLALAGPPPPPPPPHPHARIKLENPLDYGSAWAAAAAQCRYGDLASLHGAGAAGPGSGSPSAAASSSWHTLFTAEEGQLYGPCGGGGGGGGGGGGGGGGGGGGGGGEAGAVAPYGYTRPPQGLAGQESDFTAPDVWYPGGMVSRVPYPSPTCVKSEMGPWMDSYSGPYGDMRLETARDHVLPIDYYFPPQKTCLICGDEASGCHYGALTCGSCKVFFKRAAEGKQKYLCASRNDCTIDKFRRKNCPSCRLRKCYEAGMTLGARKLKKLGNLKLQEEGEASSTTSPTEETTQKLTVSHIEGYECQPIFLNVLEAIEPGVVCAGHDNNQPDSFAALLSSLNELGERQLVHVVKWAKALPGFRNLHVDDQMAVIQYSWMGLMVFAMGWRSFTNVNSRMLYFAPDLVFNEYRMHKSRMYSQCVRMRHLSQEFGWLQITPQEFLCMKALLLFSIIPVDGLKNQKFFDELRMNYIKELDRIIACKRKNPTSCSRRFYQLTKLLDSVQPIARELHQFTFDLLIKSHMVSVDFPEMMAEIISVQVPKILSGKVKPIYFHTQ
# measurement-description: Modulation of androgen receptor (unknown origin) expressed in Cos7 cells assessed as luciferase activity after 24 hrs
pEC50: −log10 of the molar value.
experimental-readout: pEC50

Q: Report measured pEC50 on Androgen receptor (Homo sapiens, UniProt P10275); entry: COC(=O)[C@H]1CCN(c2ccc(C#N)c3ccccc23)[C@H]1C
A: < 6.00

Q: Report measured pEC50 on Androgen receptor (Homo sapiens, UniProt P10275); entry: C[C@@H]1CCCN1c1ccc(C#N)c2ccccc12
A: < 6.00

Next:
Q: Report measured pEC50 on Androgen receptor (Homo sapiens, UniProt P10275); entry: CC[C@H]1CCCN1c1ccc(C#N)c2ccccc12
A: 9.62

Data origin: ChEMBL document CHEMBL3399980
